Reported pIC50 is given for each of the following compounds.
Target: Dihydrofolate reductase (Rattus norvegicus, UniProt Q920D2)
Sequence (Q920D2 whole entry): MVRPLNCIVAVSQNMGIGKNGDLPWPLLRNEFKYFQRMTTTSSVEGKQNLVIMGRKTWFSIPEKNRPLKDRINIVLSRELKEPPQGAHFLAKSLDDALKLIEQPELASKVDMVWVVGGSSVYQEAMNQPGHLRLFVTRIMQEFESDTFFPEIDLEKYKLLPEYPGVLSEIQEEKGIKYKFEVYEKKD
pIC50: −log10 of the molar value.
metric.name: pIC50

>>> df
                              sample_smiles                                    target  metric_name  number
0  CCc1nc(N)nc(N)c1-c1ccc(Cl)c(/N=N/N(CCOC(C)=O)Cc2ccccc2C)c1  Dihydrofolate reductase (Rattus norvegicus, UniProt Q920D2)        pIC50    4.95
1  CCc1nc(N)nc(N)c1-c1ccc(Cl)c(/N=N/N(CCOC(C)=O)Cc2ccc(C(F)(F)F)cc2)c1  Dihydrofolate reductase (Rattus norvegicus, UniProt Q920D2)        pIC50    5.18
2  CCc1nc(N)nc(N)c1-c1ccc(Cl)c(/N=N/N(CCOC(C)=O)Cc2cc(OC)cc(OC)c2)c1  Dihydrofolate reductase (Rattus norvegicus, UniProt Q920D2)        pIC50    6.07
3  CCc1nc(N)nc(N)c1-c1ccc(Cl)c(/N=N/N(CCOC(C)=O)Cc2ccc(F)cc2)c1  Dihydrofolate reductase (Rattus norvegicus, UniProt Q920D2)        pIC50    5.42
